# experimental_target: T1, human ferroportin (SLC40A1) fused in frame with GFP, stably expressed in HEK293 cells (human, UniProt Q9NP59 1-571)
# T1 sequence (looked up): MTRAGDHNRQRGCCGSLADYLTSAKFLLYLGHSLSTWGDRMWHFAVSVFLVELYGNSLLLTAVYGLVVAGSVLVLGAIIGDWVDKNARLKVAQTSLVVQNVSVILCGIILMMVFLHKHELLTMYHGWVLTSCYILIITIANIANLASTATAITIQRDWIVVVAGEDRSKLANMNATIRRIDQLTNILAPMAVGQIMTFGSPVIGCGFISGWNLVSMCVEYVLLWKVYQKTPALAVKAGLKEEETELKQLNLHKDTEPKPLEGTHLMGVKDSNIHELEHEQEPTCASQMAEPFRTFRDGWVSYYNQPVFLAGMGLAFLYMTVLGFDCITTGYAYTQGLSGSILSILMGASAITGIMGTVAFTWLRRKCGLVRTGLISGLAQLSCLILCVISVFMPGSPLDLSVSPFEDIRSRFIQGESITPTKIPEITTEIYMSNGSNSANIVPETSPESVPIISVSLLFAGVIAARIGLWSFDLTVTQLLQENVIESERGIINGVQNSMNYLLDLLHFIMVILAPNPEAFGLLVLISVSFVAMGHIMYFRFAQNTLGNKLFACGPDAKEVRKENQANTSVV
# protocol_description: cell-based or functional assay
Primed or numbered codes have the meaning given here. Side chains are listed from the residue outwards. * marks the point of attachment. Cyclohexanecarbonyl = O=C(C1CCCCC1)*; Isovaleryl = CC(C)CC(=O)*; PEG2′ = not defined here; PEG3′ = not defined here
measurement_kind: Potency EC50 (nM)
Please reply with the bare figure in nM and do not write the unit itself.

## Input Recorded Potency EC50 for Isovaleryl-DTHFPCIIFEPRSKGWVCK-NH2 (cysteine pairing not given here) [Compound 142] , please?
## Output 9

## Input Sample H-DTHFPCIKFGPRSKGWVCK([PEG3′-Isovaleryl])-NH2 (cysteine pairing not given here) [Compound 213] — what was its Potency EC50?
## Output 233

## Input Which measured Potency EC50 value corresponds to Cyclohexanecarbonyl-DTHFPCIKFGPRSKGWVCK-NH2 (not fully specified (bridges); cysteine pairing not given here) [Compound 168] ?
## Output 30

## Input Entry Isovaleryl-DTHFPCIIFGPRSRGWVCK(PEG2′)-NH2 (not fully specified (bridges); cysteine pairing not given here) [Compound 180] has what Potency EC50?
## Output 9

Let us examine a further case.
## Input Potency EC50 lookup needed for H-DTHFPICIFGPRSKGWACM-NH2 (cysteine pairing not given here) [Compound 47] , thanks.
## Output 313
